Tested on: SNB-19 CNS
assayDetails: NCI tumour cell line growth inhibition, 48 h
quantityMeasured: TGI (µM)
I only need the number, in µM, no unit after it.

Prompt: Quick check: TGI on SNB-19 CNS, item CN=C(N)/N=C(\N)Nc1cc2ccccc2c2ccccc12 ?
Response: 30.9

Prompt: Request: Clc1ccc(C2=C(c3ccccc3)C(c3ccc(Cl)cc3)N3C(=N[C@H]4CCCC[C@@H]43)N2)cc1 (stereo partly specified)
Response: 27.6

Prompt: # repeat for CCOC(=O)NC(=O)c1cn(CCCOC(=O)NCCCCCCNC(=O)OCCCn2cc(C(=O)NC(=O)OCC)c(=O)[nH]c2=O)c(=O)[nH]c1=O
Response: 77.6

Prompt: Could you do the same for CCN(CC)CCCCNc1ncc2cc(-c3cc(OC)cc(OC)c3)c(NC(=O)NC(C)(C)C)nc2n1 , please?
Response: 28.7

Prompt: Try the compound O=C(Cc1ccccc1)NC(c1ccc(Cl)cc1)c1c(O)ccc2ccccc12 (stereo unspecified)
Response: 13.8
